Assay: Intrinsic clearance in rat hepatocytes assessed per 10^6 cells
Type: ADME, cell-based, Liver, Hepatocyte
measured-parameter: hepatocyte CLint

Query block: Requested read-out: hepatocyte CLint. Entry: `CC(C)NCc1c(C(=O)N[C@@H]2CCC[C@H](O)C2)noc1-c1ccc(C(F)(F)F)cc1`
Result block: < 6 µL/min/1e6 cells

###

Biological target: Transient receptor potential cation channel subfamily V member 1 (Homo sapiens)
Sequence (Q8NER1 whole entry): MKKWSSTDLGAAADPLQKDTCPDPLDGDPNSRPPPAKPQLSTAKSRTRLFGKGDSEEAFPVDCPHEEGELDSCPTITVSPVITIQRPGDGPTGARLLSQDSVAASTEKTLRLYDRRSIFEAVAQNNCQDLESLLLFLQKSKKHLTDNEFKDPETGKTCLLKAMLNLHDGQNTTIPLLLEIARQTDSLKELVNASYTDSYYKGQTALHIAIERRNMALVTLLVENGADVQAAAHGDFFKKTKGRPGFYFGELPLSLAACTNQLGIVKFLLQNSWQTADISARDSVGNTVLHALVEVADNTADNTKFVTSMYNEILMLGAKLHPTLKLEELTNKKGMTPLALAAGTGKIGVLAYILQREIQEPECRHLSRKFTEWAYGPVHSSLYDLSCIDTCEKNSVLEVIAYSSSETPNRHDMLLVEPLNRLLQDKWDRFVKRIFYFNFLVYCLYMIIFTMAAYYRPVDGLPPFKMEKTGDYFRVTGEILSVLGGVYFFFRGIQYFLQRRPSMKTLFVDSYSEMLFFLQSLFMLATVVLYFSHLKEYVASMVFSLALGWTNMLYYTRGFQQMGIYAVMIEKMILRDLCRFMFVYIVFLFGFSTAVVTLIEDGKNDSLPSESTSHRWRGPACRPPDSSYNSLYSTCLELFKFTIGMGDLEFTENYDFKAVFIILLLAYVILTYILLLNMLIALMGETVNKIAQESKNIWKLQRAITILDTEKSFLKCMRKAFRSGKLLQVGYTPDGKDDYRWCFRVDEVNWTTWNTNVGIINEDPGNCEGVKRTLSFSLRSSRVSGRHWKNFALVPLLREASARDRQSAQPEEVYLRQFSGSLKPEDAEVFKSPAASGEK
Form field: IC50 (one value per entry).

Below, each entry is followed by its recorded IC50 result.
[[record]]
compound = "O=C(N[C@@H]1CCC[C@H](O)C1)c1noc(-c2ccc(Cl)c(F)c2)c1Cl"
assayed_system = "Transient receptor potential cation channel subfamily V member 1 (Homo sapiens)"
measured_parameter = "IC50"
value_observed = "0.631 nM"

[[record]]
compound = "CC[C@H](CO)NC(=O)c1noc(-c2ccc(C(F)(F)F)cc2)c1CO"
assayed_system = "Transient receptor potential cation channel subfamily V member 1 (Homo sapiens)"
measured_parameter = "IC50"
value_observed = "1580 nM"

[[record]]
compound = "O=C(N[C@@H]1CCC[C@H](O)C1)c1noc(-c2ccc(F)cc2)c1Cl"
assayed_system = "Transient receptor potential cation channel subfamily V member 1 (Homo sapiens)"
measured_parameter = "IC50"
value_observed = "50.1 nM"

[[record]]
compound = "O=C(NC1CCC(O)CC1)c1noc(-c2ccc(C(F)(F)F)cc2)c1CO (configuration not stated)"
assayed_system = "Transient receptor potential cation channel subfamily V member 1 (Homo sapiens)"
measured_parameter = "IC50"
value_observed = "1580 nM"

[[record]]
compound = "Cc1c(C(=O)N[C@@H]2CCC[C@H](O)C2)noc1-c1ccc(C(F)(F)F)c(F)c1"
assayed_system = "Transient receptor potential cation channel subfamily V member 1 (Homo sapiens)"
measured_parameter = "IC50"
value_observed = "2 nM"


Query block: Report IC50 for `O=C(NC1CCCC1)c1noc(-c2ccc(C(F)(F)F)cc2)c1CO` tested on Transient receptor potential cation channel subfamily V member 1 (Homo sapiens).
Result block: 158 nM

Query block: Hi! What's the reported IC50 for `CC(C)[C@H](C)NC(=O)c1noc(-c2ccc(C(F)(F)F)cc2)c1CO` on Transient receptor potential cation channel subfamily V member 1 (Homo sapiens)?
Result block: 126 nM
